Target: mouse NPY-Y5 receptors (mNPY-Y5) (Mus musculus, UniProt O70342)
Construct: The full-length cDNA which contains the mouse NPY-Y5 (mNPY-Y5) receptor coding was amplified from mouse brain cDNA
Sequence (O70342 1-466): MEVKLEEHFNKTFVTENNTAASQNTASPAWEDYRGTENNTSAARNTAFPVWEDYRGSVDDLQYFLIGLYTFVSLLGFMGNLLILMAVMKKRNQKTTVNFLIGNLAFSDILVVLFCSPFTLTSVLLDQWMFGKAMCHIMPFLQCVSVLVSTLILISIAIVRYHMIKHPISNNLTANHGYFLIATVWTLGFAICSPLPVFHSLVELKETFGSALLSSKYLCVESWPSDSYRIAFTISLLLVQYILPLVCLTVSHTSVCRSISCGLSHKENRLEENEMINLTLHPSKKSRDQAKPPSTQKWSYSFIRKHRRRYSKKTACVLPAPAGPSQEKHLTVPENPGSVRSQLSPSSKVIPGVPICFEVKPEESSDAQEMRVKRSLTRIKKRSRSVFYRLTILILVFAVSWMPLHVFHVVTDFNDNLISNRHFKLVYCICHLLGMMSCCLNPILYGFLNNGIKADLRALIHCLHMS
Assay: Radioligand competition binding (125I-PYY) on membranes of HEK293 cells expressing recombinant mouse NPY-Y5 receptor
Conditions: displacement of 100 pM 125I-labeled PYY, 1 h at 22° C., read-out: NPY5 IC50
MEASUREMENT_NAME: IC50 (nM)

Before answering, review these 3 worked examples.
>  <MOLECULE>
CCN(c1ccc(NC(=O)C2CC(=O)N(c3cc(OC)ccc3C)C2)cc1)c1nc(C)cc(C)n1 (racemic)

>  <UNIT_ABBREV>
nM

>  <IC50>
15

$$$$
>  <MOLECULE>
COc1ccc(C)c(N2CC(C(=O)Nc3ccc(Nc4nc(C)cc(C)n4)cc3)CC2=O)c1 (racemic)

>  <UNIT_ABBREV>
nM

>  <IC50>
26

$$$$
>  <MOLECULE>
Cc1ccc(C)c(N2CC(C(=O)Nc3ccc(Nc4nc(C)cc(C)n4)cc3)CC2=O)c1 (racemic)

>  <UNIT_ABBREV>
nM

>  <IC50>
20

$$$$

A. CCn1c2ccccc2c2cc(NC(=O)C3CC(=O)N(Cc4ccccc4)C3)ccc21 (racemic)
B. CCn1c2ccccc2c2cc(NC(=O)C3CC(=O)N(Cc4ccc(Cl)cc4)C3)ccc21 (racemic)
Exercise: Identify the entry with the larger IC50. Options: A and B Your choice should be expressed through its label.
Key: A
(A: 32 nM, B: 10 nM)

A. CCN(c1ccc(NC(=O)C2CC(=O)N(CC(O)c3ccccc3)C2)cc1)c1nc(C)cc(C)n1 (racemic)
B. CCn1c2ccccc2c2cc(NC(=O)C3CC(=O)N(CCN4CCOCC4)C3)ccc21 (racemic)
C. CCn1c2ccccc2c2cc(NC(=O)C3CC(=O)N(Cc4ccccc4Cl)C3)ccc21 (racemic)
Exercise: Could you please sort these 3 entries by IC50 from high to low? Answer format: list of labels, ordered as asked.
Key: A, C, B

1. Cc1cc(C)nc(N(C)c2ccc(NC(=O)C3CC(=O)N(c4ccccc4C(C)C)C3)cc2)n1 (racemic)
2. CCn1c2ccccc2c2cc(NC(=O)C3CC(=O)N(C4CCCCCC4)C3)ccc21 (racemic)
Exercise: Identify the entry with the larger IC50. Options: 1 and 2 Your choice should be expressed through its label.
Key: 1

a. CCn1c2ccccc2c2cc(NC(=O)C3CC(=O)N(c4cccc(F)c4)C3)ccc21 (racemic)
b. CCn1c2ccccc2c2cc(NC(=O)C3CC(=O)N(Cc4ccco4)C3)ccc21 (racemic)
Exercise: Identify the entry with the larger IC50. Options: a and b Your choice should be expressed through its label.
Key: a

1. CC(C)c1ccccc1N1CC(C(=O)Nc2ccc(Nc3ccccc3)cc2)CC1=O (racemic)
2. CCN(c1ccc(NC(=O)C2CC(=O)N(CCc3ccccn3)C2)cc1)c1nc(C)cc(C)n1 (racemic)
Exercise: Identify the entry with the larger IC50. Options: 1 and 2 Your choice should be expressed through its label.
Key: 1

I. Cc1ccc(C)c(N2CC(C(=O)Nc3ccc(-c4ccccc4)cc3)CC2=O)c1 (racemic)
II. CCN(c1ccc(NC(=O)C2CC(=O)N(c3cc(C)ccc3C)C2)cc1)C(C)C (racemic)
Exercise: Could you determine which record has the numerically smaller IC50? Candidates: I and II Your choice should be expressed through its label.
Key: II
(II: 10 nM, I: 34 nM)

---

Biological target: mouse NPY-Y5 receptors (mNPY-Y5) (Mus musculus)
Construct: The full-length cDNA which contains the mouse NPY-Y5 (mNPY-Y5) receptor coding was amplified from mouse brain cDNA
Sequence (O70342 1-466): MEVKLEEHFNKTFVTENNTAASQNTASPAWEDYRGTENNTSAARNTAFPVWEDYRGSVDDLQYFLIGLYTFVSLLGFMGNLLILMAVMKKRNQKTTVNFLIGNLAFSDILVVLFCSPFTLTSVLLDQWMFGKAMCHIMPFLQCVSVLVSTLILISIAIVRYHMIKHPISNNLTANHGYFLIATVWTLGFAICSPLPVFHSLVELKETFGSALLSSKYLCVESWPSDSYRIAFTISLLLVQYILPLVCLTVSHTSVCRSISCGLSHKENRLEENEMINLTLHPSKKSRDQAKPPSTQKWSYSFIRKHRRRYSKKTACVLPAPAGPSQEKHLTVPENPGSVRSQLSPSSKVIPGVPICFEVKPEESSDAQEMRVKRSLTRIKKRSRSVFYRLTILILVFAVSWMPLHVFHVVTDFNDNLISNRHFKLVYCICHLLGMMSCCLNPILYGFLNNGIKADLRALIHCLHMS
Experiment: Radioligand competition binding (125I-PYY) on membranes of HEK293 cells expressing recombinant mouse NPY-Y5 receptor
Conditions: displacement of 100 pM 125I-labeled PYY, 1 h at 22° C., read-out: NPY5 IC50
pIC50: −log10 of the molar value.
MEASUREMENT_NAME: pIC50

>  <COMPOUND>
CCn1c2ccccc2c2cc(NC(=O)C3CC(=O)N(CC(O)c4ccccc4)C3)ccc21 (racemic)

>  <MEASUREMENT_TARGET>
mouse NPY-Y5 receptors (mNPY-Y5) (Mus musculus)

>  <MEAS_VALUE>
8.10

$$$$
>  <COMPOUND>
CC(C)c1ccccc1N1CC(C(=O)Nc2ccc(N(c3ccccc3)C(C)C)cc2)CC1=O (racemic)

>  <MEASUREMENT_TARGET>
mouse NPY-Y5 receptors (mNPY-Y5) (Mus musculus)

>  <MEAS_VALUE>
7.47

$$$$

1. CCN(CC)c1ccc(NC(=O)C2CC(=O)N(c3cc(C)ccc3C)C2)cc1 (racemic)
2. CCn1c2ccccc2c2cc(NC(=O)C3CC(=O)N(c4ccc(C)cc4)C3)ccc21 (racemic)
Exercise: Identify the entry with the larger pIC50. Options: 1 and 2 Your choice should be expressed through its label.
Key: 1
(1: 8.05, 2: 7.52)

P. CC(C)c1ccccc1N1CC(C(=O)Nc2ccc(N(C)c3ccccc3)cc2)CC1=O (racemic)
Q. Cc1ccc(C)c(N2CC(C(=O)Nc3ccc(C(C)C)cc3)CC2=O)c1 (racemic)
Exercise: Could you determine which record has the numerically smaller pIC50? Candidates: P and Q Your choice should be expressed through its label.
Key: Q
(Q: 7.35, P: 7.70)

A. CCN(CCO)c1ccc(NC(=O)C2CC(=O)N(c3cc(C)ccc3C)C2)cc1 (racemic)
B. Cc1ccc(C)c(N2CC(C(=O)Nc3ccc(Nc4ccccc4)cc3)CC2=O)c1 (racemic)
Exercise: Identify the entry with the larger pIC50. Options: A and B Your choice should be expressed through its label.
Key: A

---

molecular target: mouse NPY-Y5 receptors (mNPY-Y5) (Mus musculus); construct: The full-length cDNA which contains the mouse NPY-Y5 (mNPY-Y5) receptor coding was amplified from mouse brain cDNA; assay: Radioligand competition binding (125I-PYY) on membranes of HEK293 cells expressing recombinant mouse NPY-Y5 receptor; details: displacement of 100 pM 125I-labeled PYY, 1 h at 22° C., read-out: NPY5 IC50
MEASUREMENT_NAME: IC50 (nM)

1. Cc1ccc(N2CC(C(=O)Nc3ccc(Nc4nc(C)cc(C)n4)cc3)CC2=O)cc1 (racemic)
2. CCn1c2ccccc2c2cc(NC(=O)C3CC(=O)N(c4ccccc4C(C)C)C3)ccc21 (racemic)
Exercise: Identify the entry with the larger IC50. Options: 1 and 2 Your choice should be expressed through its label.
Key: 1
(1: 32 nM, 2: 10 nM)

1. CCn1c2ccccc2c2cc(NC(=O)C3CC(=O)N(CCc4ccccc4)C3)ccc21 (racemic)
2. CCn1c2ccccc2c2cc(NC(=O)C3CC(=O)N(c4ccc(C(C)C)cc4)C3)ccc21 (racemic)
Exercise: Could you determine which record has the numerically smaller IC50? Candidates: 1 and 2 Your choice should be expressed through its label.
Key: 1
(1: 12 nM, 2: 30 nM)
